assay: NCI Yeast Anticancer Drug Screen. Data for the mec2-1 strain (AID 157); settings: S. cerevisiae mec2-1 strain, at 50.0 µM (retest, dose inferred, filed as 5.0), hits give high values
The panel holds about 79,000 compounds, 15% with a hit somewhere; the sample as a whole holds those more often.
Output 1 for growth inhibition not less than 60%; output 0 otherwise.

* Cc1cc(N=Nc2ccccc2C)c(N)cc1N | 1
* O=C1c2ccccc2C(=O)N1/N=C\c1ccccc1[N+](=O)[O-] | 0
* CC(C)OC(=O)Oc1c(Cl)c(Cl)c(Cl)c(Cl)c1Cl | 1
* O=C(Nc1ccc(Cl)c(Cl)c1)Nc1cc(Cl)ccc1Oc1ccc(Cl)cc1S(=O)(=O)O | 1
* COc1ccc(CCNC(=S)/N=C\C(C(=O)c2ccccc2)=C(\O)c2ccccc2)cc1OC | 1

----------
Listed here are compounds together with their documented growth inhibition.
assay: NCI Yeast Anticancer Drug Screen. Data for the rad50 strain (AID 155);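 note: 0% = growth of vehicle-only cultures of the same strain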; conditions: S. cerevisiae rad50 strain growth inhibition; at 5.0 µM (retest, dose inferred, filed as 0.5); hits give high values
Compounds without any hit were thinned out: in the full panel of roughly 79,000, 15% have a hit.
RECORDED_METRIC: growth inhibition (%)

* Cc1ccc(SCc2ccccc2Cl)nn1 | -2
* CCc1cc(/C=C\c2ccnc3ccccc23)ccc1N(C)C | -1
* CCCN1CCN(c2ccc([N+](=O)[O-])c3no[n+]([O-])c23)CC1 | 97
* Cc1ccc(S(=O)(=O)NNC(=O)c2sc(-c3nc(C)c(C(=O)NNS(=O)(=O)c4ccc(C)cc4)s3)nc2C)cc1 | 2
* O=C(Nc1ccc(-c2cn3ccccc3n2)cc1)c1cc(Br)ccc1O | 4
* c1ccc2c(c1)ccc1c2ccc2sc3ccccc3[n+]21 | 71
* CC(NNC(=S)N1CCCCCC1)c1cccnn1 (configuration not stated) | 99
* Nc1c(Cl)[nH]c(C(F)(F)F)nc1=S | -2
* COC(=O)c1c(C)cccc1C1CN=NC12Cc1ccccc1C2=O (configuration not stated) | 24
* O=C(/C(=C\c1ccccc1)c1ccccc1)c1ccc(Br)cc1 | 7
* N#Cc1c(-c2ccc(Cl)cc2)c(C#N)c(=O)n(NS(=O)(=O)c2ccccc2)c1S | 51
* CCOC(=O)CSC(=S)N1CCOCC1 | -3

----------
assay: NCI Yeast Anticancer Drug Screen. Data for the cln2 rad14 strain (AID 165);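 note: 0% = growth equal to vehicle treated cultures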; settings: S. cerevisiae cln2 rad14 strain, at 50.0 µM (retest, dose inferred, filed as 5.0), hits give high values
The panel holds about 79,000 compounds, 15% with a hit somewhere; the sample as a whole holds those more often.
RECORDED_METRIC: growth inhibition (%)

- COc1ccc(C2C3=C(CC(C)(C)CC3=O)Oc3cc4c(cc32)OCO4)c(OC)c1 (stereo not drawn): 20
- CCC[CH2][Sn]([CH2]CCC)([NH]c1ncnc2[nH]cnc12)[NH]c1ncnc2[nH]cnc12: 89
- CC(=O)Nc1ccc(S(=O)(=O)/N=C2\C=CC(=O)c3ccccc32)cc1: -6
- CCCCCCCCCCCCCC(=O)CBr: 68
- C(CCCCCN1CCCCC1)CCCCN1CCCCC1: 6
- OC(c1cc(-c2ccccc2)nc2cc(Cl)ccc12)C1CCCCN1 (stereo not drawn): -4
- CCCCCCCCCCCCCCCCCC[n+]1cccc(C(=O)N2CCOCC2)c1: 99
- CN1N=C2c3ccccc3CC[C@H]2C1c1cccc(O)c1 (stereo partly drawn): 83
- O=C1C=CC(=O)N1c1ccc(-c2ccc(N3C(=O)C=CC3=O)cc2)cc1: 57
- CCOC(=O)Nc1nc2ccc(Cn3cccc3)cc2[nH]1: 24
- Nc1ccc2ccc3cccc4ccc1c2c34: 99
- N=C1C=CC(=C(c2ccc(N)cc2)c2ccc(N)cc2)C=C1: 93
- CS/C(=N\C(=S)N(C)C)N(c1ccccc1)c1nc(=[N+](C)C)ss1: 99
- Cc1cccc2c(Nc3ccc(NS(C)(=O)=O)cc3)c3ccccc3nc12: 19
- Cc1ccc(SSCCCS(=O)O)cc1: 41
- CCCCCCCCCc1cc(=O)[nH]c(=S)[nH]1: 58
- O=C(/C(=C\c1ccccc1)c1ccccc1)c1ccc(Br)cc1: -8
- Cc1cc(C(=O)O)c(C)c2c1sc1ccccc12: 81
- Cc1ccc(-c2c(C#N)c(S)n(NS(=O)(=O)c3ccccc3)c(=O)c2C#N)cc1: 64
- CCOc1ccccc1NC(=O)/C(Cl)=C(\Cl)C(=O)O: 99
- CCCCCCCCCCC(O)CN1CCN(c2cccc(Cl)c2)CC1 (stereo not drawn): 98
- O=[N+]([O-])c1cccc(F)c1O: 65
- FC(F)(F)C(F)(F)C1(F)C(F)(F)C(F)(F)C(F)(F)C(F)(F)C1(F)F: -8
